Would you kindly list pEC50 for each of these compounds?
target: hTRPM8 (Homo sapiens); construct: expressed in transfected cells; experiment: hTRPM8 cell based agonist assay (section 3.1); details: mammalian cell line stably expressing TRPM8
Scale: negative log10 of molar concentration, which is what pEC50 denotes.

In plain terms, CC(C)(C(=O)NCC(=O)c1ccc(O)cc1)C1CCCCC1 has a documented pEC50 of 6.30

In plain terms, CC(C(=O)N(C)CC(=O)c1ccccc1)c1ccccc1 (stereo not drawn) has a documented pEC50 of 5.63

In plain terms, C[C@H](C(=O)NNC(=O)c1ccccc1)C1CCCCC1 has a documented pEC50 of 5.20

In plain terms, Cc1cccc(C(C)C(=O)N(C)CC(=O)c2ccccc2)c1 (stereo not drawn) has a documented pEC50 of 5.35

In plain terms, CC(C(=O)N(C)CC(=O)c1ccccc1)C1CCCCC1 (stereo not drawn) has a documented pEC50 of 8.00

In plain terms, CC(C(=O)N(C)CC(=O)c1cccs1)C1CCCCC1 (stereo not drawn) has a documented pEC50 of 7.23

In plain terms, CC(C(=O)NCC(=O)c1ccccc1)C1CC2CCC1C2 (stereo not drawn) has a documented pEC50 of 5.47

In plain terms, CC(C)(C(=O)NCC(=O)c1cccnc1)C1CCCCC1 has a documented pEC50 of 6.64

In plain terms, CC(C(=O)N(C)CC(=O)c1cc(O)cc(O)c1)C1CCCCC1 (stereo not drawn) has a documented pEC50 of 7.55

In plain terms, CC(C)(C(=O)NCC(O)c1ccccc1)C1CCCCC1 (stereo not drawn) has a documented pEC50 of 5.38

In plain terms, CC(C(=O)N(C)CC(=O)c1cccc(O)c1)C1CCCCC1 (stereo not drawn) has a documented pEC50 of 7.89

In plain terms, CN(CC(=O)c1ccc(F)cc1)C(=O)C(C)(C)C1CCCCC1 has a documented pEC50 of 5.67

In plain terms, CC(C)(C(=O)NCC(=O)c1cc(O)cc(O)c1)C1CCCCC1 has a documented pEC50 of 7.06

In plain terms, CC(C)(C(=O)NCC(=O)c1cccc(F)c1)C1CCCCC1 has a documented pEC50 of 6.59

In plain terms, C[C@H](C(=O)N(C)CC(=O)c1ccsc1)C1CCCCC1 has a documented pEC50 of 7.39

====

target: hTRPM8 (Homo sapiens, UniProt Q7Z2W7); construct: expressed in transfected cells; assay: hTRPM8 cell line agonist assay (section 2.1); type: cell-based; conditions: cell line stably expressing hTRPM8
Sequence (Q7Z2W7 whole entry): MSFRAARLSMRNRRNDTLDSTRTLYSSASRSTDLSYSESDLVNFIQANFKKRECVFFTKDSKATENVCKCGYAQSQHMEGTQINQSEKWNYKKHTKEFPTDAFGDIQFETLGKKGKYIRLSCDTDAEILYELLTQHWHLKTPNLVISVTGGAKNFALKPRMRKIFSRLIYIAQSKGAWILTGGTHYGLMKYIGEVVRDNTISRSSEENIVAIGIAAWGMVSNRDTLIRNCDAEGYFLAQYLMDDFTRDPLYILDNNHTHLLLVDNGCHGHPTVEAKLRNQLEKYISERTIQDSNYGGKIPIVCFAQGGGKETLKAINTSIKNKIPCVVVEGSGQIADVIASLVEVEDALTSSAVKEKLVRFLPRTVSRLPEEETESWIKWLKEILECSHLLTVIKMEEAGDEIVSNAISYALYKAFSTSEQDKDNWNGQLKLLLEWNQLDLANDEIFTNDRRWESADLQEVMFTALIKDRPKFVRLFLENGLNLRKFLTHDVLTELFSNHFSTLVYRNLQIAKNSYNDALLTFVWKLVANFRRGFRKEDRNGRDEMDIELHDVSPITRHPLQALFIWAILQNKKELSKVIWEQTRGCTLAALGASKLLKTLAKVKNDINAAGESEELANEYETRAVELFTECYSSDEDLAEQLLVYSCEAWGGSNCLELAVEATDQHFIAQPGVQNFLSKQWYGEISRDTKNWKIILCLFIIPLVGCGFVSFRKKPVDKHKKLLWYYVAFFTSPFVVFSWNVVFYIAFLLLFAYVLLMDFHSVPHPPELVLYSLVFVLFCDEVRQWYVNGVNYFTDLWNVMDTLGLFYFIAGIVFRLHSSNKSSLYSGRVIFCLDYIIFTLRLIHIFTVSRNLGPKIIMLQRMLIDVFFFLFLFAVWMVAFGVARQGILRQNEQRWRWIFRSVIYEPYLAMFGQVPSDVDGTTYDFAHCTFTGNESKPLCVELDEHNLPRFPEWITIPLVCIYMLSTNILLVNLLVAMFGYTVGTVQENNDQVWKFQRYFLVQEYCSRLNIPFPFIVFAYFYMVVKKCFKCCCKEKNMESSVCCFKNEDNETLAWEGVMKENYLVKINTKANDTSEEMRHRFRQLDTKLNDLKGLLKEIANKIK
Would you kindly list pEC50 for each of these molecules?
Scale: negative log10 of molar concentration, which is what pEC50 denotes.

In plain terms, CN1C(=O)N(CC(=O)c2ccccc2)C(=O)C(C)(C2=CCCCC2)C1=O (stereo not shown) [Compound 2.M3] has a documented pEC50 of 6.72

In plain terms, CN1C(=O)N(CC(=O)c2ccc[nH]2)C(=O)C1(C)C1CCCCC1 (stereo not shown) [Compound 2.J3] has a documented pEC50 of 6.78

In plain terms, CN1C(=O)N(CC(=O)c2ccccc2)C(=O)C1(C)C1CC2C=CC1CC2 (stereo not shown) [Compound 2.E3] has a documented pEC50 of 6.90

In plain terms, CN1C(=O)N(CC(=O)c2cccc(O)c2)C(=O)C1(C)C1CC2CCC1C2 (stereo not shown) [Compound 2.C3] has a documented pEC50 of 7.00

In plain terms, CN1CC(C)(C2CCCCC2)C(=O)N(CC(=O)c2cccnc2)C1=O (stereo not shown) [Example 2.2] has a documented pEC50 of 6.43

In plain terms, CN1C(=O)N(CC(=O)c2cccnc2)C(=O)C1(C)CCc1ccccc1 (stereo not shown) [Compound 2.U5] has a documented pEC50 of 5.43

In plain terms, CN1C(=O)N(CC(=O)c2ccccc2)C(=O)C1(C)C1=CCCCC1 (stereo not shown) [Compound 2.F3] has a documented pEC50 of 6.86

In plain terms, CN1CC(C)(C2=CCCCC2)CN(CC(=O)c2ccccc2)C1=O (stereo not shown) [Compound 2.F1] has a documented pEC50 of 5.54

In plain terms, CCN1C(=O)N(CC(=O)c2ccccc2)C(=O)C1(C)C1CCCCC1 (stereo not shown) [Compound 2.P3] has a documented pEC50 of 6.64

In plain terms, CC1CCCC1C1(C)C(=O)N(CC(=O)c2cccc(O)c2)C(=O)N1C (mixture of isomers) [Compound 2.G3] has a documented pEC50 of 6.84

====

Would you kindly list EC50 Ratio (WS3) for each of these compounds?
target: hTRPM8 (Homo sapiens); construct: expressed in transfected cells; test: hTRPM8 cell line agonist assay (section 2.1); format: cell-based; settings: relative to WS3 screened on the same day; greater than one = more potent than WS3

In plain terms, CN1C(=O)N(CC(=O)c2ccccc2)C(=O)C(C)(C2=CCCCC2)C1=O (stereo not shown) has a documented EC50 Ratio (WS3) of 240.6

In plain terms, CN1C(=O)N(CC(=O)c2ccc(O)cc2)C(=O)C1(C)C1CCCCC1 (stereo not shown) has a documented EC50 Ratio (WS3) of 33.4

In plain terms, CN1C(=O)N(CC(=O)c2cccc(O)c2)C(=O)C1(C)C1CC2CCC1C2 (single isomer, unassigned) [Compound 2.B3] has a documented EC50 Ratio (WS3) of 2810.1

In plain terms, CN1C(=O)N(CC(=O)c2ccccc2)C(=O)C1(C)C1CC2CCC1CC2 (single isomer, unassigned) [Compound 2.A3] has a documented EC50 Ratio (WS3) of 73.1

In plain terms, CC1CCCC1C1(C)C(=O)N(CC(=O)c2ccccc2)C(=O)N1C (mixture of isomers) has a documented EC50 Ratio (WS3) of 25.9

In plain terms, CN1C(=O)N(CC(=O)c2ccccc2)C(=O)C1(C)C1CC2C=CC1CC2 (stereo not shown) has a documented EC50 Ratio (WS3) of 53.5

In plain terms, CN1C(=O)N(CC(=O)c2ccc[nH]2)C(=O)C1(C)C1CCCCC1 (stereo not shown) has a documented EC50 Ratio (WS3) of 32.1

Data origin: patent US11028052B2
